# Assay target: T1, Placenta Growth Factor (PlGF), human (human, UniProt P49763 21-149)
# T1 chain: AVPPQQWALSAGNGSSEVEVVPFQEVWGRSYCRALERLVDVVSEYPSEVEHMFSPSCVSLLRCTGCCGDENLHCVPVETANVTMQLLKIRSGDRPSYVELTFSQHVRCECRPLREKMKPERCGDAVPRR
# Assay text: ELISA
Parameter measured: EC50 (nM)
Write the answer as a number in nM, unit excluded.

These recorded examples may help you get a feel for the data.
HC 7/SLC 5 (antibody) chain 1: GQGTLVTVSSASTKGPSQPVLHQPPAMSSALGTTIRLTCTLRNDHDIGVYSVYWYQQRPGHPPRFLLRYFSQSDKSQGPQVPPRFSGSKDVARNRGYLSISELQPEDEAMYYCAMGARSRCWPRGFQSKHNSVTHVFGSGTQLTVLSQPKATPSVTLFPPSSEELQANKATLVCLMNDFYPGILTVTWKADGTPITQGVEMTTPSKQSNNKYAASSYLSLTPEQWRSRRSYSCQVMHEGSTVEKTVAPAECS chain 2: MSWAPVLLMLFVYCTGCGPQPVLHQPPAMSSALGTTIRLTCTLRNDHDIGVYSVYWYQQRPGHPPRFLLRYFSQSDKSQGPQVPPRFSGSKDVARNRGYLSISVTHVFGSGTQLTVLSQPKAQVQLVQ; 0.283
HC 10/SLC 9 (antibody) chain 1: GQGTLVTVSSASTKGPSVFPQPVLHQPPAMSSALGTTIRLTCTLRNDHDIGVYSVYWYQQRPGHPPRFLLRYFSQSDKSQGPQVPPRFSGSKDVARNRGYLSISELQPEDEAMYYCAMGARSRCWPRGFQSKHNSVTHVFGSGTQLTVLSQPKATPSVTLFPPSSEELQANKATLVCLMNDFYPGILTVTWKADGTPITQGVEMTTPSKQSNNKYAASSYLSLTPEQWRSRRSYSCQVMHEGSTVEKTVAPAECS chain 2: MSWAPVLLMLFVYCTGCGPQPVLHQPPAMSSALGTTIRLTCTLRNDHDIGVYSVYWYQQRPGHPPRFLLRYFSQSDKSQGPQVPPRFSGSKDVARNRGYLSISVTHVFGSGTQLTVLSQPKATPSVQVQLVQ; 0.039
HC 6/SLC 2 (antibody) chain 1: GQGTLVTVSSASTKGPQPVLHQPPAMSSALGTTIRLTCTLRNDHDIGVYSVYWYQQRPGHPPRFLLRYFSQSDKSQGPQVPPRFSGSKDVARNRGYLSISELQPEDEAMYYCAMGARSRCWPRGFQSKHNSVTHVFGSGTQLTVLSQPKATPSVTLFPPSSEELQANKATLVCLMNDFYPGILTVTWKADGTPITQGVEMTTPSKQSNNKYAASSYLSLTPEQWRSRRSYSCQVMHEGSTVEKTVAPAECS chain 2: MSWAPVLLMLFVYCTGCGPQPVLHQPPAMSSALGTTIRLTCTLRNDHDIGVYSVYWYQQRPGHPPRFLLRYFSQSDKSQGPQVPPRFSGSKDVARNRGYLSISVTHVFGSGTQLTVLSQQVQLVQ; 0.229

q: Fill blank: measured EC50 of the binder HC 10/SLC 4 (antibody) chain 1: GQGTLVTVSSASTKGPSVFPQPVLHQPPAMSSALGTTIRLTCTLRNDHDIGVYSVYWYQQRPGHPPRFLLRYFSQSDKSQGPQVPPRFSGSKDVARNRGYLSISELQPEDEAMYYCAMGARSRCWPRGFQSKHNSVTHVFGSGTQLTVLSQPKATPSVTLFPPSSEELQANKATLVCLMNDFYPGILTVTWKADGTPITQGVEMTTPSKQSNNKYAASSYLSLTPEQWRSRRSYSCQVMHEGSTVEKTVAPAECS chain 2: MSWAPVLLMLFVYCTGCGPQPVLHQPPAMSSALGTTIRLTCTLRNDHDIGVYSVYWYQQRPGHPPRFLLRYFSQSDKSQGPQVPPRFSGSKDVARNRGYLSISVTHVFGSGTQLTVLSQPKQVQLVQ is ____.
a: 0.153

All figures here come from patent US20150045540A1.
